I'd be grateful if you could share measured CC50 at 24 h for these entries.
experiment: Cytotoxicity Assay (CellTiter-Glo); format: cell-based; settings: human, Hep G2 cells (ATCC HB-8065); 24 h exposure, cell viability; read-out: HepG2 CC50
Counter-ions that a name gives are not always drawn.

Below: 6 molecules and their reported CC50 at 24 h.
CS(=O)(=O)c1ccc(-c2ccn(S(N)(=O)=O)c2C(=O)O)cc1 [Example 5, sodium salt]: > 256 µg/mL
NS(=O)(=O)n1ccc(-c2cccc3ncccc23)c1C(=O)O [Example 11, sodium salt]: > 256 µg/mL
NS(=O)(=O)n1ccc(-c2cccnc2)c1C(=O)O [Example 8, sodium salt]: > 256 µg/mL
NS(=O)(=O)c1ccn(-c2ccc(C3CCNCC3)cc2)c1C(=O)O [Example 82, sodium salt]: > 256 µg/mL
Cc1ccc(-n2ccc(S(N)(=O)=O)c2C(=O)O)cc1: > 256 µg/mL
CS(=O)(=O)N1CCC(c2ccn(S(N)(=O)=O)c2C(=O)O)CC1: > 256 µg/mL

List the reported CC50 at 24 h of each molecule below.
1. CN(C)S(=O)(=O)c1ccc(-c2ccn(S(N)(=O)=O)c2C(=O)O)cc1 [Example 4, sodium salt]
2. NS(=O)(=O)n1ccc(-c2ccc(F)cc2)c1C(=O)O [Example 18, sodium salt]
3. NS(=O)(=O)n1ccc(-c2ccccc2)c1C(=O)O [Example 3, sodium salt]
4. NS(=O)(=O)n1ccc(C2CCCCC2)c1C(=O)O [Example 10, sodium salt]
5. Cc1cn(S(N)(=O)=O)c(C(=O)O)c1-c1ccccc1

# output
> 128 µg/mL
> 256 µg/mL
> 128 µg/mL
145 µg/mL
> 256 µg/mL

Batch: CC50 at 24 h for all items listed.
1. NCC(=O)N1CCC(c2ccn(S(N)(=O)=O)c2C(=O)O)CC1
2. NS(=O)(=O)n1ccc(-c2ccc(-c3ccncc3)cc2)c1C(=O)O
3. CCc1cn(S(N)(=O)=O)c(C(=O)O)c1-c1ccccc1
4. NS(=O)(=O)n1ccc(-c2cccc(F)c2)c1C(=O)O
5. Cn1cc(-c2ccn(S(N)(=O)=O)c2C(=O)O)cn1 [Example 6, sodium salt]

# output
1. > 256 µg/mL
2. > 256 µg/mL
3. 237 µg/mL
4. > 256 µg/mL
5. > 256 µg/mL

So for NS(=O)(=O)n1ccc(-c2ccc(N3CCOCC3)nc2)c1C(=O)O , the logged CC50 at 24 h turned out to be > 64 µg/mL
